# Test system: rats having artificially promoted high blood pressure (according to Goldblatt)
# RUN_DESCRIPTION: blood pressure reduction in rats having artificially promoted high blood pressure (according to Goldblatt), plethysmographic at base of tail
# Assay type: in vivo
# STUDY_CONDITIONS: Rattus norvegicus, sc, 10 mg/kg s.c., single dose, at the time given in the same line, read-out: Maximum blood pressure reduction, diastolic (percent of initial value)
Counter-ions that a name gives are not always drawn.
QUANTITY_NAME: change in vivo at 10 mg/kg (%)
Express your answer in %, writing the number without its unit.

# get_value(readout='change in vivo at 10 mg/kg', item= Cc1cccnc1CNCCOc1ccccc1C#N [Compound J, hydrate] )
-12

Input COc1ccccc1OCCNCc1cccnc1 [Compound C, HCl]
-16

Input COc1ccccc1OCCNCCc1ccccn1 [Compound B, HCl]
-23
